assay notes: qHTS RealTime-Glo MT Cell Viability Assay in HEK293 cells - 16 hour (AID 1224872); also: nearly all actives have a fitted effect of over 50% in size
test conditions: RealTime-Glo luminescence; series mostly up to 76.8 µM
Excerpt: National Center for Advancing Translational Sciences [NCATS] NIH Chemical Genomics Center [NCGC] U.S. Environmental Protection Agency [EPA] National Institutes of Environmental Health Sciences [NIEHS] National Toxicology Program [NTP] U.S. Food and Drug Administration [FDA] Measure of cell viability is critical in the cell-base assay. Analysis of cell viability is necessary for the characterization of cell responses to cytotoxic drugs and environmental stress. […]
Records with an inconclusive call do not appear. Activity calls are given as the source filed them. Calls follow the shape of the dose curve; as a rule, active = well fitted cell-killing curve with a large enough effect in the repeat runs; inconclusive = weak or mixed curves, or effect the other way; inactive = flat fitted curve, though single readings scatter.
Pick from yes (1) = active, no (0) = inactive when you respond.

*Q* For this compound, state the assay outcome: O=C1OC(OC(=O)c2cccnc2Nc2cccc(C(F)(F)F)c2)c2ccccc21 (centres undefined)
*A* no (0)

*Q* For this compound, state the assay outcome: O=C1NC2CCCCN2C12CCN(CCCN1c3ccccc3CCc3ccc(Cl)cc31)CC2 (centres undefined)
*A* yes (1)

*Q* For this compound, state the assay outcome: CC(=O)Oc1ccc(C2(c3ccc(OC(C)=O)cc3)Oc3ccccc3NC2=O)cc1
*A* no (0)

*Q* For this compound, state the assay outcome: COC(=O)C1=C(C)NC(C)=C(C(=O)OCCCN2CCC(c3ccccc3)(c3ccccc3)CC2)C1c1cccc([N+](=O)[O-])c1 (centres undefined)
*A* yes (1)

*Q* For this compound, state the assay outcome: CCCCCCCC/C=C/CCCOC(C)=O
*A* no (0)

*Q* For this compound, state the assay outcome: COc1ccc(C#N)cc1
*A* no (0)

*Q* For this compound, state the assay outcome: O[C@@H](c1cc(C(F)(F)F)nc2c(C(F)(F)F)cccc12)[C@H]1CCCCN1
*A* yes (1)

*Q* For this compound, state the assay outcome: C=C(c1ccc(C(=O)O)cc1)c1cc2c(cc1C)C(C)(C)CCC2(C)C
*A* no (0)

*Q* For this compound, state the assay outcome: CCc1cccc(CC)c1N(COC)C(=O)CS(=O)(=O)O
*A* no (0)

*Q* For this compound, state the assay outcome: CCNc1nc(NC(C)CC)nc(OC)n1 (centres undefined)
*A* no (0)

*Q* For this compound, state the assay outcome: CC(=O)OC(OC(C)=O)c1ccc([N+](=O)[O-])o1
*A* yes (1)

*Q* For this compound, state the assay outcome: CS(C)(=O)=O
*A* no (0)

*Q* For this compound, state the assay outcome: O=C1OC(=O)c2ccc3c4c(ccc1c24)C(=O)OC3=O
*A* no (0)

*Q* For this compound, state the assay outcome: CNCC[C@H](Oc1cccc2ccccc12)c1cccs1
*A* yes (1)

*Q* For this compound, state the assay outcome: O=C(Nc1ccc(Cl)cc1)Nc1ccc(Cl)c(C(F)(F)F)c1
*A* yes (1)

*Q* For this compound, state the assay outcome: C(=C/c1ccccc1)/c1ccccc1
*A* no (0)

*Q* For this compound, state the assay outcome: COc1ccccc1OCCNCC(O)COc1cccc2[nH]c3ccccc3c12 (centres undefined)
*A* yes (1)

*Q* For this compound, state the assay outcome: CC(=O)Oc1ccc(C2(c3ccc(OC(C)=O)cc3)C(=O)Nc3ccccc32)cc1
*A* no (0)

*Q* For this compound, state the assay outcome: CCCCCCCCCCCCCCCC
*A* no (0)

*Q* For this compound, state the assay outcome: NC(=O)c1ccccc1N
*A* no (0)

*Q* For this compound, state the assay outcome: O=C1OC(=O)c2cccc3cccc1c23
*A* no (0)

*Q* For this compound, state the assay outcome: Oc1ccc(-c2ccccc2)c(Cl)c1
*A* yes (1)

*Q* For this compound, state the assay outcome: CCCCCCCC(=O)OCC
*A* no (0)

*Q* For this compound, state the assay outcome: OCCCc1cccnc1
*A* no (0)

*Q* For this compound, state the assay outcome: COc1cccc(CCc2ccccc2OCC(CN(C)C)OC(=O)CCC(=O)O)c1 (centres undefined)
*A* no (0)

*Q* For this compound, state the assay outcome: Cc1cccc(Br)c1
*A* no (0)

*Q* For this compound, state the assay outcome: O=C1C=CC(=O)N1c1ccccc1
*A* yes (1)

*Q* For this compound, state the assay outcome: COC(=O)[C@]1(C)CCC[C@@]2(C)[C@H]1CC=C1C=C(C(C)C)CC[C@@H]12
*A* no (0)

*Q* For this compound, state the assay outcome: CCCCCCCCCCCC(=O)N(CC)CC
*A* no (0)

*Q* For this compound, state the assay outcome: CCC1(c2cnc[nH]2)Cc2ccccc2C1
*A* no (0)

*Q* For this compound, state the assay outcome: CC1CCCCC1
*A* no (0)

*Q* For this compound, state the assay outcome: CC(C)(C)CC(C)(C)c1ccccc1O
*A* yes (1)

*Q* For this compound, state the assay outcome: Cc1occc1SSc1ccoc1C
*A* no (0)

*Q* For this compound, state the assay outcome: C[n+]1c2cc(N)ccc2cc2ccc(N)cc21 (tested in a mixture with another compound)
*A* yes (1)
